Overview of reported viscosity across a group of compounds:
Settings: 293.15 K; 102 kPa; Liquid; Concentric cylinders viscometry

CHEMICAL STRUCTURE	viscosity [mPa·s]
CCCCCCCCC1CCCCC1	3.52
CCCCCCCCCCCCCCCC	3.47
CCCCCCCC1CCCCC1	2.8
CCCCCCCCCCC1CCCCC1	5.32
CCCCCC1CCCCC1	1.7
CCCC1CCCCC1	0.996
CCCCCCCCCCCCC1CCCCC1	7.76
CCCCCCCCCC1CCCCC1	4.34
CCCCCCC1CCCCC1	2.2

###

Conditions: 293.15 K; 102 kPa; Liquid; Frequency=3 MHz; Single path-length method
Overview of reported speed of sound across a group of compounds:

COMPOUND	UOM	speed of sound
CCCCCCCCCCC1CCCCC1 [decylcyclohexane]	m/s	1406.7
CCCCCCCC1CCCCC1 [heptylcyclohexane]	m/s	1374.4
CCCCCCCCCCCCC1CCCCC1 [dodecylcyclohexane]	m/s	1423.3
CCCCCC1CCCCC1 [pentylcyclohexane]	m/s	1345.9
CCCCCCC1CCCCC1 [hexylcyclohexane]	m/s	1361
